system: KM12; experiment: NCI tumour cell line growth inhibition, 48 h
Activity calls are given as the source filed them. Rule as the data show it: active = GI50 up to about 1.1 µM and inactive = higher.
Each record here notes measured GI50.

molecule	GI50
COc1ccc2c(O)c(Oc3ccc(Cl)cc3)c(=O)oc2c1	> 100 µM (inactive)
N#CC1(CCCCl)CCCCC1	> 100 µM (inactive)
CNc1ccc(C)cc1S(=O)(=O)c1ccccc1[N+](=O)[O-]	59.4 µM (inactive)
CN1CCN(C2=C(Cl)C(=O)c3c(O)ccc(O)c3C2=O)CC1	1.99 µM (inactive)
O=C1[C@H]2ON(c3ccccc3)C(c3cccc([N+](=O)[O-])c3)[C@H]2C(=O)N1c1ccc(Cc2ccc(N3C(=O)[C@@H]4ON(c5ccccc5)C(c5cccc([N+](=O)[O-])c5)[C@@H]4C3=O)cc2)cc1 (some centres undefined)	> 100 µM (inactive)
CN1C2CCC1CN(CCOC(c1ccc(F)cc1)c1ccc(F)cc1)C2	21.8 µM (inactive)
COc1ccc(/C=N/c2ccc(-c3nc4ccccc4s3)cc2)cc1OC	26.4 µM (inactive)
CC(=O)OC1CC2C(C)(C)C(=O)C=C[C@]2(C)C2CCC3(C)C(=CCC3[C@H](CO)C[C@H](O)C(=O)C(C)(C)O)[C@]12C (some centres undefined)	19.1 µM (inactive)
O=c1c(C(c2ccc(/C=C/c3ccccc3)cc2)c2c(O)oc3cc(O)ccc3c2=O)c(O)oc2cc(O)ccc12	> 100 µM (inactive)

---

test system: HOP-92; assay: NCI tumour cell line growth inhibition, 48 h
Active and inactive are the calls of the source. Rule as the data show it: active = GI50 up to about 1.1 µM and inactive = higher.
observable: GI50

molecule	observable	data value
CCOC(=O)c1c(SCCN2CCOCC2)n(-c2ccccc2)c(=S)n(-c2ccccc2)c1=O	GI50	51.6 µM (inactive)
O=c1cc2n(c(=O)[nH]1)C1OC(C(O)C1O)[C@@H]2CCO (stereo partly specified)	GI50	> 100 µM (inactive)
Nc1c(S(=O)(=O)O)cc(S(=O)(=O)O)c2ccc(/N=N/c3ccccc3)c(O)c12	GI50	> 100 µM (inactive)
N#Cc1nc(C#N)c(NC(=O)c2ccccc2C(=O)O)[nH]1	GI50	> 100 µM (inactive)
Cc1nc(-c2ccccc2)cn2c1nc1ccccc12	GI50	21 µM (inactive)
CCN(CC)C(=O)CCCCCCCCC1CO1 (stereo unspecified)	GI50	> 100 µM (inactive)
COc1ccc(C2=NN(C(C)=O)c3nc4ccccc4nc3O2)cc1	GI50	16.4 µM (inactive)
CN(C)c1ccc(/C=C2\N=C(c3ccccc3)N(/N=C3\C(=O)Nc4ccccc43)C2=O)cc1	GI50	16.9 µM (inactive)
COC(=O)N/N=C(\Cc1ccccc1)CN(C)C	GI50	> 100 µM (inactive)
O=C(CCl)Nc1ccc(-c2nc3ccccc3s2)cc1	GI50	2.36 µM (inactive)
C=CC1(c2ccc3ccccc3c2)OCC(CC)O1 (stereo unspecified)	GI50	36.7 µM (inactive)

---

test system: SF-295; assay: NCI tumour cell line growth inhibition, 48 h
The source made the active and inactive calls. No stated cut-off is given here; in the data, active = GI50 up to about 1.1 µM and inactive = higher.
Outcome codes: active, inactive

molecule	qualitative label
Cc1c(C)c(C)c(CSC(=N)N)c(C)c1C	inactive
CC1CC2OC(=O)C(C)C2CC2(C)C(OC3OC(CO)C(O)C(O)C3O)OCCC12 (stereo unspecified)	inactive
c1ccc(C2=Nc3cccc4cccc(c34)N2)cc1	inactive
CCOC(=O)c1ccc(N2C(=O)/C(=C\OC)c3ccccc3C2=O)cc1	inactive
N#Cc1c(-c2nc3ccccc3s2)c(=O)oc2cc(O)ccc12	inactive
O=S1(=O)c2ccccc2Oc2ccc(C(/C=N/O)=N/O)cc21	inactive
Nc1n[n+]([O-])c2cnccc2[n+]1[O-]	inactive
O=C(N[C@H]1c2ccsc2/C(=N/O)[C@H]1O)C(F)(F)F	inactive
CC(C)NC(=O)OCc1c(COC(=O)NC(C)C)c(-c2cc[n+](COC(=O)C(C)(C)C)cc2)n2c1CCC2	inactive
O=C(O)c1ccc(N/C(=C(/C(Cl)=C(Cl)Cl)[N+](=O)[O-])n2nnc3ccccc32)cc1	inactive
Cc1cc(C)nc(NS(=O)(=O)c2ccc(Nc3c4ccccc4nc4c(C(=O)Nc5ccc(S(=O)(=O)Nc6cc(C)on6)cc5)ccc(Cl)c34)cc2)n1	inactive
Cc1ccc(S(=O)(=O)N/N=C/c2oc(-c3cccc([N+](=O)[O-])c3)c(-c3cccc([N+](=O)[O-])c3)c2[N+](=O)[O-])cc1	inactive
Cc1nc2c(=S)[nH]ncc2[nH]1	inactive
Nc1nc(Cl)c2ncn(CCCC(c3ccccc3)P(=O)(O)O)c2n1 (stereo unspecified)	inactive
COc1ccc(Nc2nc3cc(C(F)(F)F)ccc3nc2-c2ccccc2)cc1OC	inactive
O=c1c2cc(I)ccc2nc(SCc2nncs2)n1Cc1ccccc1	inactive
Cn1c2ccccc2c(=NNc2ccc(S(=O)(=O)N=C(N)N)cc2)c2ccccc21	inactive
COc1ccc(/C=C2/C(=O)N(C(=O)c3ccccc3O)N=C2C)cc1	active
Cc1cc(C)c(NC(=O)/C=C/c2ccccc2)c(C)c1	inactive
CCOC(=O)CCNC(=O)c1cc(C)cc2c1Oc1c(cc(C)cc1C(=O)NCCC(=O)OCC)S2	inactive
CC(C)(C)NC(=O)/C(=C\Sc1ccccc1)c1ccc2c(c1)OCO2	inactive

---

tested on: K562; assay: NCI tumour cell line growth inhibition, 48 h
Calls of active or inactive are those of the source. No stated cut-off is given here; in the data, active = GI50 up to about 1.1 µM and inactive = higher.
Outcome codes: active, inactive

compound	qualitative label
Oc1cc(Cl)cc2cc(Cl)cnc12	active
CC(=O)O/C=C1/C[C@H]2[C@@H]3CCC4CC(C(C)=O)CC[C@]4(C)[C@H]3CC[C@]2(C)C1=O (some centres not stated)	inactive
COC(=O)C1=C(C(=O)OC)C23CC4CCC2(C(=O)C1O3)C4(C)C (configuration not stated)	inactive
CCOC(=O)c1[nH]c2cccc3c2c1CC[C@H](NC(=O)C(F)(F)F)C3=O	inactive
O=C1CCCCC12CCC/C2=N\O (configuration not stated)	inactive
Nc1nc(Cl)cc(NCC2(CO)CCCC2)n1	inactive
CC(=O)OC12CC(C(F)(F)F)(C(F)(F)F)OC1(OC(C)=O)CC(C(F)(F)F)(C(F)(F)F)O2 (configuration not stated)	active
COc1ccc2c(n1)Sc1nc3ccccc3nc1N2	inactive
CC1C(=O)C23OC[C@@]1(C)C1(O)CC[C@@H](C)[C@]21CC3=O (some centres not stated)	inactive
C1=c2ccccc2=C2C(=C(c3ccccc3)C(c3ccccc3)=NN2c2ccccc2)S1	inactive
CCOC(=O)N/N=C(/N)Cc1ccc(Cl)cc1	inactive
C[C@]12CC[C@H]3[C@@H](CCC4=CC(=O)C=C[C@@]43O)[C@@H]1CCC2=O	inactive
COc1ccc(Nc2nc3cc(C(F)(F)F)ccc3nc2-c2ccccc2)cc1OC	inactive
N#CCCN(c1ccc(/C=N/c2cccc([N+](=O)[O-])c2)cc1)S(=O)(=O)c1ccccc1	inactive
CN1C2CCC1CN(CCOC(c1ccc(F)cc1)c1ccc(F)cc1)C2	inactive
CCCCCC#COC1CC(C)CC[C@@H]1C(C)C (some centres not stated)	inactive
Cc1ccccc1C(CCCO)C(=O)O (configuration not stated)	inactive
O=C(CCl)Nc1ccc(-c2nc3ccccc3s2)cc1	inactive
O=C(O)c1ccc(N/C(=C(/C(Cl)=C(Cl)Cl)[N+](=O)[O-])n2nnc3ccccc32)cc1	inactive
CC(C)(CCCCC(C)(C)C1NC(=O)N1)C1NC(=O)N1	inactive
COc1cc2ccc1OCc1cccc(n1)COc1ccc(cc1OC)/C=N\CCNCCNCC/N=C\2	inactive
CCOC(OCC)C(CC)[Se]c1ccccc1[N+](=O)[O-] (configuration not stated)	inactive

---

tested on: HL-60; assay: NCI tumour cell line growth inhibition, 48 h
Calls of active or inactive are those of the source. Rule as the data show it: active = GI50 up to about 1.1 µM and inactive = higher.
Each record here notes measured GI50.

compound	GI50
CC(C)[C@H]1NC(=O)[C@H]2N=C(O[C@@H]2C)[C@@H]2CCCN2C(=O)[C@H](Cc2ccccc2)NC(=O)[C@@H]2COC(=N2)[C@@H](Cc2ccccc2)NC(=O)[C@@H]2COC1=N2	> 100 µM (inactive)
CC[C@@H]1CN2CCC1C[C@@H]2C(O)c1ccnc2ccc(OCCN3CCN(CCOc4ccc5nccc(C(O)[C@@H]6C[C@@H]7CCN6C[C@@H]7CC)c5c4)CC3)cc12 (some centres undefined)	21.9 µM (inactive)
O=c1[nH]c2ccccc2c(=O)n1/N=C/c1ccc(O)cc1	> 100 µM (inactive)
Oc1c(CN2CCCC2)ccc2cccnc12	4.94 µM (inactive)
Nc1c(S(=O)(=O)O)cc(S(=O)(=O)O)c2ccc(/N=N/c3ccccc3)c(O)c12	> 100 µM (inactive)
COc1ccc(C(O)/C(=N\NC(N)=S)c2nc3ccc([N+](=O)[O-])cc3nc2O)cc1OC (centres undefined)	> 100 µM (inactive)
CCOC(=O)c1cc2c(OC)cc(OC)cc2oc1=O	> 100 µM (inactive)
CCOC1=C2N=C(Cc3ccccc3F)N=C2C(=O)c2ccccc21	> 100 µM (inactive)
O=C1c2c(Br)sc(Br)c2[C@@H](Cl)[C@H]1Cl	3.27 µM (inactive)

Data provenance: ChEMBL document CHEMBL1201862
